MEASUREMENT_TARGET: T1, human 4Ig-B7H3 (B7H3-4Ig-His) (human, UniProt Q5ZPR3 29-466)
T1 construct: Recombinant His-tagged protein immobilised on a CM5 chip; also called 41g-B7H3; human 4Ig-B7-H3 (dominant isoform); not shown: His tag
T1 sequence: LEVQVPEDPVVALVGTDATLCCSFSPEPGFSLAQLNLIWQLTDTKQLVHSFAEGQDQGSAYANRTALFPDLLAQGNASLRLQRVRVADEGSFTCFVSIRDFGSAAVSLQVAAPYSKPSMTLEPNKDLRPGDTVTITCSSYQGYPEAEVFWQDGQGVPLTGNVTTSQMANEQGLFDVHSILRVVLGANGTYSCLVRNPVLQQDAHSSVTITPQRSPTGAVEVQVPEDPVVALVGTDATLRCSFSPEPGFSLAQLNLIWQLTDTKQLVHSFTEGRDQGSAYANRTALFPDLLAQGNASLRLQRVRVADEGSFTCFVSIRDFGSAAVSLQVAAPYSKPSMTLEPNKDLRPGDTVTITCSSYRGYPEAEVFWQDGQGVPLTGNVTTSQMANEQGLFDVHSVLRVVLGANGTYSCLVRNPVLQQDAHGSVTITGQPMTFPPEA
METHOD_DESCRIPTION: SPR, Biacore T200, 4Ig-B7H3-His on CM5 chip, 1:1 fit
MEASURED_PARAMETER: Kd (nM)
Supply the numeric figure in nM, leaving out any unit text.

// known answers, use as guide
8H9 antibody conjugated with p-SCN-Bn-DOTA, CAR 7.5 (antibody, mouse IgG1, kappa, V domains shown, p-SCN-Bn-DOTA conjugated, CAR 7.5 per antibody; sites not stated, Chelator conjugate, not metal-labelled) VH: QVQLQQSGAELVKPGASVKLSCKASGYTFTNYDINWVRQRPEQGLEWIGWIFPGDGSTQYNEKFKGKATLTTDTSSSTAYMQLSRLTSEDSAVYFCARQTTATWFAYWGQGTLVTVSA VL: DIVMTQSPATLSVTPGDRVSLSCRASQSISDYLHWYQQKSHESPRLLIKYASQSISGIPSRFSGSGSGSDFTLSINSVEPEDVGVYYCQNGHSFPLTFGAGTKLELKR; 14.6
8H9 antibody conjugated with p-SCN-Bn-DOTA, CAR 2.6 (antibody, mouse IgG1, kappa, V domains shown, p-SCN-Bn-DOTA conjugated, CAR 2.6 per antibody; sites not stated, Chelator conjugate, not metal-labelled) VH: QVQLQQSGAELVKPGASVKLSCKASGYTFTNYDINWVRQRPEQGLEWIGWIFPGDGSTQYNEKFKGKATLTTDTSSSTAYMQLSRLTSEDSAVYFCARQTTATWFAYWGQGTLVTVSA VL: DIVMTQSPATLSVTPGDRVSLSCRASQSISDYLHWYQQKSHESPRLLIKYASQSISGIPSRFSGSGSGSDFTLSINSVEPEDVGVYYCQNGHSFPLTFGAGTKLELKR; 7.57

input: Given 8H9 antibody conjugated with p-SCN-Bn-CHX-A″-DTPA, CAR 0.6 (antibody, mouse IgG1, kappa, V domains shown, p-SCN-Bn-CHX-A″-DTPA conjugated, CAR 0.6 per antibody; sites not stated, Chelator conjugate, not metal-labelled; also called conj-CHX-A″-DTPA (CAR0.6)) VH: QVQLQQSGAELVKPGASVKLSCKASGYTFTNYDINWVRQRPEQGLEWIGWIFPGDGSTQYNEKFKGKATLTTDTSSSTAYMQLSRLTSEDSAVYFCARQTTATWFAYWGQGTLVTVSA VL: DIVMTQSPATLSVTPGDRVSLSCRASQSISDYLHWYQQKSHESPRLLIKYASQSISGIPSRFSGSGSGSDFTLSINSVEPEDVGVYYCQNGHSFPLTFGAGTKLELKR , state its recorded Kd.
output: 10.1
